Each entry below carries its recorded pIC50.
- Tested on: SMMC-7721
- Experimental details: Cytotoxicity against human SMMC7721 cells after 48 hrs by SRB assay
- Format: functional, cell-based
- Cond: SMMC-7721, 48 h
Please note pIC50 is a logarithmic value: minus log10 of concentration in mol/L. Answer with that number alone.

>>> print(df.to_string())
                                   molecule  assayed_system  result_number
0  COC1=CC(=O)c2ccccc2C1=O [2-Methoxy-1,4-naphthoquinone]       SMMC-7721           5.37

Then there is this molecule:
The reported value for CC[C@@]1(O)C(=O)OCc2c1cc1n(c2=O)Cc2cc3ccccc3nc2-1 [CAMPTOTHECIN] in terms of pIC50 is 8.52
